# test-target: Tumor necrosis factor receptor superfamily member 10B (Homo sapiens)
# assay-summary: compound enhancement of TRAIL-induced cell killing – NB7 cells plus caspase-8, luminescence, panel, dose response (AID 652002)
# condition-summary: NB7 neuroblastoma +caspase-8, TRAIL sensitization, luminescence viability; NB7+Caspase-8; with TRAIL, mean of runs
Active and inactive are the calls of the source. How the calls were made is not given here.
reported-metric: EC50

Record excerpt, results attached:
- molecule: "O=C(NCC1CCCO1)c1ccc2c3n(nc2c1)-c1ccccc1CO3 (stereo not given)"
  EC50: "inactive"
- molecule: "COc1cc(NC(=O)c2[nH]cnc2C(N)=O)cc(C(=O)Nc2cccc(C(F)(F)F)c2)c1"
  EC50: "inactive"
- molecule: "Cc1cc2nc(-c3ccc(SCC(=O)Nc4nccs4)nc3)[nH]c2cc1C"
  EC50: "inactive"
- molecule: "Cc1ccc(NC(=O)c2ccccc2O)cc1"
  EC50: "inactive"

-- ask Item: Cc1ccc(NC(=O)CSc2nc3ccc(Nc4nc(N5CCOCC5)nc(N5CCOCC5)n4)cc3s2)cc1 Test system: Tumor necrosis factor receptor superfamily member 10B (Homo sapiens) Read-out: EC50 Value: ?
-- reply > 12.5 µM (inactive)

-- ask Enter reported EC50 observed with Tumor necrosis factor receptor superfamily member 10B (Homo sapiens) for Fc1ccc(-c2cnn3c(-c4ccncc4)ccnc23)cc1
-- reply > 12.5 µM (inactive)

-- ask Can you look up EC50 on Tumor necrosis factor receptor superfamily member 10B (Homo sapiens) for CC(=O)c1ccc(NC(=O)Nc2cccnc2)cc1 ?
-- reply inactive
